molecular target: Very-long-chain 3-oxoacyl-CoA reductase (Homo sapiens) (UniProt Q53GQ0); assay: Inhibition of 17beta-HSD12 over-expressed in intact HEK293 cells at 10 uM; format: cell-based
Sequence (Q53GQ0 whole entry): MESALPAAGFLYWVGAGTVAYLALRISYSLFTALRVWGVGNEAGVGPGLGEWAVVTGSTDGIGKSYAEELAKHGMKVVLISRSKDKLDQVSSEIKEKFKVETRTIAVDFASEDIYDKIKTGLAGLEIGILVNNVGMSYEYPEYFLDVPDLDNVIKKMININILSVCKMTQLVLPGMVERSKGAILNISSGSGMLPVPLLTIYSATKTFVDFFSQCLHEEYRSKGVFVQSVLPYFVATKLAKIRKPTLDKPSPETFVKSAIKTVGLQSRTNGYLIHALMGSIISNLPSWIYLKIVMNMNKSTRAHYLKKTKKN
Label scheme for inhibition: lower than 30% is N, 30% and above is Y.

* CCCCN(C)C(=O)CCCCCC[C@H]1C[C@@H]2[C@H](CC[C@]3(C)C(=O)CC[C@@H]23)c2ccc(O)cc21 | Y
* CCCCN(C)C(=O)CCCCCC[C@@H]1C[C@@H]2[C@H](CC[C@]3(C)[C@@H](O)CC[C@@H]23)c2cc(OC)c(O)cc21 | N
* CCCCN(C)C(=O)CCCCCS[C@@H]1C[C@@H]2[C@H](CC[C@]3(C)[C@@H](O)CC[C@@H]23)c2ccc(O)cc21 | N
* C[C@]12CC[C@@H]3c4ccc(O)cc4CC[C@H]3[C@@H]1CCC2=O | N
* CCCCN(C)C(=O)CCCCCC[C@@H]1C[C@@H]2[C@H](CC[C@]3(C)C(=O)CC[C@@H]23)c2ccc(O)cc21 | Y

FYI, the data here is from ChEMBL document CHEMBL1144570.
